Origin of measurements: patent US20250197372A1

STUDY TARGET: recombinant alpha-glucosidase II (murine full-length glucosidase II, alpha and beta subunits, Glu 2) (Mus musculus)
Construct: made in house; host or cells: HEK-293T cells transduced with BacMam viruses (75% alpha, 25% beta); protein harvested from culture supernatant
Sequence (O08795 15-521): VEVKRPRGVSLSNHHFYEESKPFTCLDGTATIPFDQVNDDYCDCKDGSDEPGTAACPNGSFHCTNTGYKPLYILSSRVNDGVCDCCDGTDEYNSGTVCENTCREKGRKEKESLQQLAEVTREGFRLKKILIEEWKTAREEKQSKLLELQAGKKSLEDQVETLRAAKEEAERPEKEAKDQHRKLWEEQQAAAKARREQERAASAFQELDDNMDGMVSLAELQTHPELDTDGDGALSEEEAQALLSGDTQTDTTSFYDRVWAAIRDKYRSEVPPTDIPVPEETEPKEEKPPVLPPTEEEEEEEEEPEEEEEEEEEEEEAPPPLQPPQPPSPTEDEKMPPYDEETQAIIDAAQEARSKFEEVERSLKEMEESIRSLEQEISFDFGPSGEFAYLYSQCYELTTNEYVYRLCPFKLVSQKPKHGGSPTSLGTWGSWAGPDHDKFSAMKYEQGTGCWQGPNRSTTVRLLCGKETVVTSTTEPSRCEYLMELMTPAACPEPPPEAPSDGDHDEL
Sequence (Q8BHN3 33-944): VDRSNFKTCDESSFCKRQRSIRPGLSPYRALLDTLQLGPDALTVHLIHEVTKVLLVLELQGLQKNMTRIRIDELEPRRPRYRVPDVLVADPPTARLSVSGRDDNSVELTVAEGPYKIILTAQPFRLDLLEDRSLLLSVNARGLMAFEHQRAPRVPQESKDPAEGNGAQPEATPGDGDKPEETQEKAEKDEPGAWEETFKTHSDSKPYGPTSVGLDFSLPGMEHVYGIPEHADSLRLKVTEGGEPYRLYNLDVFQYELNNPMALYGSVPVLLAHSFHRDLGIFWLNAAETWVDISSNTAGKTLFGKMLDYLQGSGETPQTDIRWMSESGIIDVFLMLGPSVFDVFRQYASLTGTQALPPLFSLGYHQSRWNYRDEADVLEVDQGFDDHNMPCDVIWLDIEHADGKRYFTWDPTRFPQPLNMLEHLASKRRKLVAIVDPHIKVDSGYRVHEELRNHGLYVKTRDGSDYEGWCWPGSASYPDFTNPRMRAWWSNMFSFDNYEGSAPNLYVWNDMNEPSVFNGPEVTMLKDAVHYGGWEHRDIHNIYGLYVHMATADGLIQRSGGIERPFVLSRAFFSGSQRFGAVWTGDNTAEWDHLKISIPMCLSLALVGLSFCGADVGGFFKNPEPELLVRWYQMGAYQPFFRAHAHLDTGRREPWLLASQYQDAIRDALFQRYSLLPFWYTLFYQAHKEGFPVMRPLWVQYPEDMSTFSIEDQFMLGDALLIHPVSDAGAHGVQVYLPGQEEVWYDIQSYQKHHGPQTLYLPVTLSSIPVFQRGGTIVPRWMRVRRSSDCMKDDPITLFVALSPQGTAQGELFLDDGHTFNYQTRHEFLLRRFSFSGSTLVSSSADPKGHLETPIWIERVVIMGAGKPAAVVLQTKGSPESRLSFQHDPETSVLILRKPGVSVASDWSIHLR
PROCEDURE DETAILS: Alpha-glucosidase II assay (4-methylumbelliferyl-alpha-D-pyranoside substrate, fluorescence)
Type: biochemical
PROTOCOL CONDITIONS: Glucosidase 2; read-out: Glu2 IC50
pIC50: −log10 of the molar value.

MOLECULE | CMP | pIC50
[N-]=[N+]=Nc1ccc(NCCNS(=O)(=O)NCCN2C[C@H](O)[C@@H](O)[C@H](O)[C@H]2CO)c([N+](=O)[O-])c1 [Compound 1275] | = | 6.44
CS(=O)(=O)c1cc(NCc2ccc(CN3C[C@H](O)[C@@H](O)[C@H](O)[C@H]3CO)cc2)cc(N2CCOCC2)c1 [Compound 1054] | = | 5.66
COc1cc(-c2cnccn2)ccc1NCCCCCCN1C[C@H](O)[C@@H](O)[C@H](O)[C@H]1CO [Compound 1199] | = | 7.92
OC[C@@H]1[C@@H](O)[C@H](O)[C@@H](O)CN1CCc1ccc(CCNc2cc(Cl)cc(-c3cccnn3)c2)cc1 [Compound 1163] | > | 9.00
COc1cc(NCCCCCCN2C[C@H](O)[C@@H](O)[C@H](O)[C@H]2CO)cc(C2CCCCC2)c1 [Compound 1148] | > | 9.00
O=[N+]([O-])c1cc(CN2CCCO2)ccc1NCc1ccc(CN2C[C@H](O)[C@@H](O)[C@H](O)[C@H]2CO)cc1 [Compound 1098] | = | 7.08
N#Cc1cc(-c2ncccn2)ccc1NCCCCCCN1C[C@H](O)[C@@H](O)[C@H](O)[C@H]1CO [Compound 1256] | = | 8.22
COc1cc(NCCCCCCN2C[C@H](O)[C@@H](O)[C@H](O)[C@H]2CO)cc(-c2ncccn2)c1 [Compound 1217] | = | 7.96
Cc1cc(NCc2cccc(CN3C[C@H](O)[C@@H](O)[C@H](O)[C@H]3CO)c2)cc(-c2ncccn2)c1 [Compound 1035] | = | 4.18
O=[N+]([O-])c1cc(C2CC2)ccc1NCCCCCCN1C[C@H](O)[C@@H](O)[C@H](O)[C@H]1CO [Compound 1136] | = | 9.00
COc1cc(CN2CCCO2)cc(NCCCCCCN2C[C@H](O)[C@@H](O)[C@H](O)[C@H]2CO)c1 [Compound 1182] | = | 8.70
[N-]=[N+]=Nc1ccc(NCCN(CCC(N)=O)CCN2C[C@H](O)[C@@H](O)[C@H](O)[C@H]2CO)c([N+](=O)[O-])c1 [Compound 1235] | = | 6.28
OC[C@@H]1[C@@H](O)[C@H](O)[C@@H](O)CN1CCCCCCNc1ccc(-c2ncccn2)cc1F [Compound 1229] | = | 7.43
Cc1cc(NCc2ccc(CN3C[C@H](O)[C@@H](O)[C@H](O)[C@H]3CO)cc2)cc(-c2ncccn2)c1 [Compound 1053] | = | 6.86
